assayed target: S. pyogenes SKKanGAS, kanamycin survival, BacTiterGlo, 6 h
assay notes: S. pyogenes SKKanGAS kanamycin growth inhibitors – SKKanGAS strain, luminescence, dose confirmation, streptokinase promoter inhibitor project, dose response (AID 1902);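 note: lower survival reflects blocked streptokinase promoter driving kanamycin resistance gene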
Activity calls are given as the source filed them.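 Rule for the calls: active = EC50 no more than a set limit of log units above the highest dose; inactive = the rest.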
Labels: YES = active, NO = inactive

compound | group
O=C(Cc1cccs1)N/N=C/c1ccco1 | YES
COc1cccc(OC)c1C(=O)Nc1cc(C)nn1-c1nc2ccccc2[nH]1 | YES
N#Cc1ccc(Cl)cc1NC(=O)CSc1nc2nc(-c3cccs3)cc(C(F)(F)F)c2c(=O)[nH]1 | YES
COc1ccc(C(=O)c2coc3c2C(=O)C(=O)c2ccccc2-3)cc1 | YES
O=C(Nc1nnc(SCc2ccccc2Cl)s1)C1COc2ccccc2O1 (configuration not stated) | YES
Cc1c(Cl)cnn1CC(=O)NC1C(=O)N2C(C(=O)O)=C(CSc3nnnn3C)CSC12 (configuration not stated) | YES
CCCCCCCCOC(=O)C1=C(C)Nc2nnnn2C1c1cccs1 (configuration not stated) | YES
COC(=O)c1ccc(Oc2nc3ccccc3n3c(C)nnc23)cc1 | YES
Cc1cccc(Nc2nc(N)nc(CN3CCN(c4ccc(F)cc4)CC3)n2)c1 | YES
O=C(/C=C/c1ccco1)Nc1nc(-c2ccccn2)cs1 | YES
O=C(Oc1ccc(NC2=C(Cl)C(=O)c3ccccc3C2=O)cc1)c1ccc([N+](=O)[O-])cc1 | YES
O=C(O)c1ccc(NC(=S)NC(=O)c2cccc(COc3ccccc3)c2)cc1 | YES
CCCc1ccc(-c2cc(N)n[nH]2)cc1 | YES
CCCCCCn1c(=O)c(C(=O)Nc2c(C)n(C)n(-c3ccccc3)c2=O)c(O)c2ccccc21 | YES
CC(Oc1ccc(Br)cc1)C(=O)Nc1nc(-c2ccccn2)cs1 (configuration not stated) | YES
O=C(Nc1ccccc1)Nc1cc(OCC(F)(F)F)cc(OCC(F)(F)F)c1 | YES
O=C(N/N=C\c1c(O)ccc2ccccc12)c1cncc(Br)c1 | YES
C/C(=N\NC(=O)c1cc(Br)ccc1O)c1cccc(NC(=O)c2ccccc2F)c1 | YES
O=C(CNC(=O)c1ccc2c(c1)OCO2)N/N=C/c1cc(Br)ccc1O | YES
Cc1cc(/C=C2\C(=N)N3N=C(S(C)(=O)=O)SC3=NC2=O)c(C)n1Cc1ccccc1 | YES
COc1ccc(C(=O)N2CCCC(Nc3ccc(C)c(C)c3)C2)cc1F (configuration not stated) | NO
CCc1cc(C(=O)N2CCCC(CCC(=O)NCc3cccc(OC)c3)C2)no1 (configuration not stated) | NO

// data source = PubChem BioAssay AID1902
